Source: patent US5646155A

List of IC50 tested on UniProt P09250.
State the answer as a number, implicitly in µM.

CCCCCCCCCCCCCCNc1nc2[nH]cnc2c(=O)[nH]1 [C14 G] ... 69

Name the recorded IC50 of CCCNc1nc2c(ncn2[C@H]2C[C@H](O)[C@@H](CO)O2)c(=O)[nH]1 [PrdG] , assay system UniProt P09250.
20

----------
# assay text: Pharmacokinetics in mice following intraperitoneal administration (Table 3)
# Type: in vivo
# details: mouse, plasma, ip; mice, i.p. 100 mg/Kg, 90% DMSO; read-out: Plasma t1/2
test readout: half-life
A complete answer gives the number and then names the unit.

State its half-life for this compound: O=c1[nH]c(Nc2ccccc2)nc2c1ncn2CCO [HE-PG, 9-(2-Hydroxyethyl)-N^2-phenylguanine]
21 min

----------
# system name: HSV1 TK (Human herpesvirus 1)
# Sequence (P0DTH5 whole entry): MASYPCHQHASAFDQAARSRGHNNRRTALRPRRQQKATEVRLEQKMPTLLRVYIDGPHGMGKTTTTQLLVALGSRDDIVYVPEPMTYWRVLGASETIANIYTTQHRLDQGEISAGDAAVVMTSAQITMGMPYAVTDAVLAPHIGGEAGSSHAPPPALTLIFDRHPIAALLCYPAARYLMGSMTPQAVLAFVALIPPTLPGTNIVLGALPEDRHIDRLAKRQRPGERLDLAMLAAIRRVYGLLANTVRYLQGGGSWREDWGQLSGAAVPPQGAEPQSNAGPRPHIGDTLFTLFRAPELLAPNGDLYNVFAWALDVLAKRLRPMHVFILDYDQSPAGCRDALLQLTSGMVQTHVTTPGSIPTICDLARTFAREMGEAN
test readout: pIC50
The read-out pIC50 is expressed as -log10 of concentration in moles per litre.

State its pIC50 for this compound: O=c1[nH]c(Nc2ccccc2)nc2c1ncn2COC(CO)CO
6.30

----------
# assay text: Pharmacokinetics in mice following intraperitoneal administration (Table 3)
# Assay type: in vivo
# details: mouse, in vivo, ip, 100 mg/kg, pH 11.4
test readout: C0 (µM)
State the answer as a number, implicitly in µM.

O=c1[nH]c(Nc2ccccc2)nc2c1ncn2[C@H]1C[C@H](O)[C@@H](CO)O1 ... 11.7

State its C0 for this compound: O=c1[nH]c(Nc2cccc(C(F)(F)F)c2)nc2nc[nH]c12 [m-CF3 PG, N^2-(m-[trifluoromethyl]phenyl)guanine, reference compound]
10.2

----------
# assay text: Absorption and distribution in mice (Table 2)
# Format: in vivo
# details: mouse, in vivo, iv; mice, i.v., in saline, pH 11.3; read-out: Volume of Distribution
test readout: Vd (L/kg)
State the answer as a number, implicitly in L/kg.

State its Vd for this compound: O=c1[nH]c(Nc2ccccc2)nc2c1ncn2[C@H]1C[C@H](O)[C@@H](CO)O1
0.4

----------
# assay text: Absorption and distribution in mice (Table 2)
# Format: in vivo
# details: mouse, plasma, iv, pH 11.3, mice, in saline, pH 11.3
# From the text: Absorption and distribution of 9-substituted-N^2 -phenylquanines in mice. *i.v., intravenous; i.p., intraperitoneal.
test readout: half-life
A complete answer gives the number and then names the unit.

State its half-life for this compound: O=c1[nH]c(Nc2ccccc2)nc2c1ncn2[C@H]1C[C@H](O)[C@@H](CO)O1
7.5 min

----------
# system name: HSV2 TK (Human herpesvirus 2)
# assay text: HSV2 thymidine kinase inhibition (Table 1)
# Type: biochemical
# details: read-out: IC50 HSV2 TK
test readout: IC50 (µM)
State the answer as a number, implicitly in µM.

State its IC50 for this molecule: O=c1[nH]c(Nc2ccccc2)nc2c1ncn2CC(O)CSCCO (stereo not shown) [CH2 CHCH2SCH2 CH2 OH]
1.56

----------
# system name: Varicella Zoster Virus (VZV) Thymidine Kinase (TK) (Varicella-zoster virus, UniProt P09250)
# Sequence (P09250 whole entry, looked up): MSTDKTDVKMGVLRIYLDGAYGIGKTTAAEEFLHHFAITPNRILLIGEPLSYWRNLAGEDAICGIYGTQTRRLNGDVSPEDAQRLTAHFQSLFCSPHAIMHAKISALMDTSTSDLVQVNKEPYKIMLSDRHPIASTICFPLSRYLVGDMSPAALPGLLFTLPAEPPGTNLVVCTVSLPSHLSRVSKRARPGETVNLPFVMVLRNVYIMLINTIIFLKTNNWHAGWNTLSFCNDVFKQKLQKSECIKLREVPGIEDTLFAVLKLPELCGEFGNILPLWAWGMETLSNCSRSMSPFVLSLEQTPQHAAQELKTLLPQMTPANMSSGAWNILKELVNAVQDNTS
test readout: pKi
The read-out pKi is expressed as -log10 of concentration in moles per litre.

CCCNc1nc2c(ncn2[C@H]2C[C@H](O)[C@@H](CO)O2)c(=O)[nH]1 ... 4.87

Note: attention shifts to another entry.
State its pKi for this compound: CCCCCCCCCCCCNc1nc2nc[nH]c2c(=O)[nH]1
5.49

----------
# system name: HSV2 TK (Human herpesvirus 2, UniProt P04407)
# Sequence (P04407 whole entry): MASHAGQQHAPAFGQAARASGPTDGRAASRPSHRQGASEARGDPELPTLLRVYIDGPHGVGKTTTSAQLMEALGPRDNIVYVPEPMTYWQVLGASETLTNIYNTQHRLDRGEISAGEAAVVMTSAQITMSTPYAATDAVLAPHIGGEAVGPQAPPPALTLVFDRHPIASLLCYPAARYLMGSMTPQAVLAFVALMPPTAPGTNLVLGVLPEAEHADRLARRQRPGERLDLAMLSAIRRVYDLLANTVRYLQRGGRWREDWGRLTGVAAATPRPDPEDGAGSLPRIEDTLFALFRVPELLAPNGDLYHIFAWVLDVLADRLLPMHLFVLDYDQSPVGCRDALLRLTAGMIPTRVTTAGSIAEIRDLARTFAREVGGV
# assay text: HSV2 thymidine kinase inhibition (Table 1)
# Type: biochemical
test readout: pIC50
The read-out pIC50 is expressed as -log10 of concentration in moles per litre.

Check out these entries, answers already filled in.
O=c1[nH]c(Nc2ccccc2)nc2c1ncn2[C@H]1C[C@H](O)[C@@H](CO)O1 [drawing 15] ... 6.15
O=c1[nH]c(Nc2ccccc2)nc2c1ncn2CCCCO [HB-PG, 9-(4-Hydroxybutyl)-N^2-phenylguanine] ... 5.66

Note: attention shifts to another entry.
State its pIC50 for this compound: Oc1[nH]c(Nc2ccccc2)nc2ncnc1-2 [H]
5.80

----------
# assay text: Solubility in water (Table 1)
# Format: physicochemical
# details: read-out: Sol. in H2O
Reported solubility by item:
State the answer as a number, implicitly in µM.

Check out these entries, answers already filled in.
O=c1[nH]c(Nc2ccccc2)nc2c1ncn2CC(O)CO (stereo not drawn) [DHP-PG] ... 171
C=CCn1cnc2c(=O)[nH]c(Nc3ccccc3)nc21 [CH2 CHCH2] ... 8.1

State its solubility for this compound: O=c1[nH]c(Nc2ccccc2)nc2c1ncn2COC(CO)CO [CH2OCH(CH2 OH)2]
113

----------
# assay text: Pharmacokinetics in mice following intraperitoneal administration (Table 3)
# Type: in vivo
# details: mouse, in vivo, ip, 100 mg/kg, pH 11.4
test readout: half-life (min)
State the answer as a number, implicitly in min.

State its half-life for this compound: O=c1[nH]c(Nc2ccccc2)nc2c1ncn2[C@H]1C[C@H](O)[C@@H](CO)O1
60

----------
# assay text: Pharmacokinetics in mice following intraperitoneal administration (Table 3)
# Assay type: in vivo
# details: mouse, in vivo, ip, 100 mg/kg
test readout: C0 (µM)
State the answer as a number, implicitly in µM.

Check out these entries, answers already filled in.
O=c1[nH]c(Nc2ccccc2)nc2c1ncn2CCO [HE-PG, 9-(2-Hydroxyethyl)-N^2-phenylguanine] ... 100
O=C(O)Cn1cnc2c(=O)[nH]c(Nc3ccccc3)nc21 ... 246
O=c1[nH]c(Nc2ccccc2)nc2c1ncn2CC(O)CO (stereo not shown) ... 115

Note: attention shifts to another entry.
State its C0 for this molecule: O=c1[nH]c(Nc2ccccc2)nc2c1ncn2CCCCO [HB-PG, 9-(4-Hydroxybutyl)-N^2-phenylguanine]
30.5

----------
# assay text: Solubility in water (Table 1)
# Format: physicochemical
# details: read-out: Sol. in H2O
test readout: solubility (µM)
State the answer as a number, implicitly in µM.

O=c1[nH]c(Nc2ccccc2)nc2c1ncn2CCO [HE-PG, 9-(2-Hydroxyethyl)-N^2-phenylguanine] ... 156
O=c1[nH]c(Nc2ccccc2)nc2c1ncn2[C@H]1C[C@H](O)[C@@H](CO)O1 [drawing 15] ... 81
O=c1[nH]c(Nc2ccccc2)nc2c1ncn2CCCCO [HB-PG, 9-(4-Hydroxybutyl)-N^2-phenylguanine] ... 56

State its solubility for this molecule: O=c1[nH]c(Nc2ccccc2)nc2c1ncn2CC(O)CSCCO (stereo not shown) [CH2 CHCH2SCH2 CH2 OH]
29.8
